Target: human Retinoid X Receptor beta (RXRb), RXRB (gene 6257) (UniProt P28702)
Sequence (P28702 whole entry, looked up): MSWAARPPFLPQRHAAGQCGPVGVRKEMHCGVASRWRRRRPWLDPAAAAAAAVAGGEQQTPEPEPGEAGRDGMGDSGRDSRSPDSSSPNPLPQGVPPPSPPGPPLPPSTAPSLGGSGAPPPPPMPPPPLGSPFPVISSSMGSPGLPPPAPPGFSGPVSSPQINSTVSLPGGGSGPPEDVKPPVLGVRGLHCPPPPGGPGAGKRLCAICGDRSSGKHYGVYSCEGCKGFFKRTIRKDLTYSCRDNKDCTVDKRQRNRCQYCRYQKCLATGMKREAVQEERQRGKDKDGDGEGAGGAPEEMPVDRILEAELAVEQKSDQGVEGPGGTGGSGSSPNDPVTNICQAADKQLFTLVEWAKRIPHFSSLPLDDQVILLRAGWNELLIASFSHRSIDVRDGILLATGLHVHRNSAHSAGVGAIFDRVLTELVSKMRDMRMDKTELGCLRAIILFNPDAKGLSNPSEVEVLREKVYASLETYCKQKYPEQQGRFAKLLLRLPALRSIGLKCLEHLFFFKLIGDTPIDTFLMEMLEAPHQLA
Assay: ATG_RXRb_TRANS: Attagene TRANS-FACTORIAL HepG2 Assay for human Retinoid X Receptor beta (RXRb) (AID 2283013)
Records with an inconclusive call do not appear. Activity calls are given as the source filed them. How the source made its calls: active means hit-call score of the fitted dose curve at least 0.9, where 1 is the maximum; inconclusive means response in the unintended direction; inactive means score below 0.9.
Hi! Could you answer with just one of these? true for active, false for inactive

Exercise: # lookup: test call for COCCCOc1ccnc(CS(=O)c2nc3ccccc3[nH]2)c1C (configuration not stated)
Key: false

Exercise: # lookup: test call for `O=C1c2ccccc2C(=O)N1SC1CCCCC1`
Key: true

Exercise: # lookup: test call for `ClCCCl`
Key: false

Exercise: # lookup: test call for `CC(=O)[O][Al][O]C(C)=O`
Key: true

Exercise: # lookup: test call for `CCCCCC(=O)OCCc1ccccc1`
Key: false

Exercise: # lookup: test call for `O=C(Oc1ccccc1)c1ccc(O)cc1`
Key: false

Exercise: # lookup: test call for CN1[C@@H]2CC(OC(=O)[C@H](CO)c3ccccc3)C[C@H]1[C@@H]1O[C@@H]12 (some centres not stated)
Key: true
